Entry source: the supplement of paper PMC11451515

- Test system: P12-Ichikawa
- experiment: AUC of viability dose-response curve (% viability x log10 dose units); higher = less sensitive
- experimental context: RPMI 5 mM glucose + 10% dialyzed FBS; 48 h

{"molecule": "O=C(CCc1ccc(O)cc1)c1c(O)cc(O)cc1O[C@@H]1O[C@H](CO)[C@@H](O)[C@H](O)[C@H]1O", "test system": "P12-Ichikawa", "AUC of viability dose-response curve": 408}
{"molecule": "CC1(C)CC(O)CC(C)(C)N1[O]", "test system": "P12-Ichikawa", "AUC of viability dose-response curve": 459}
{"molecule": "C[C@@H](N)c1ccc(C(=O)Nc2ccnc3[nH]ccc23)cc1", "test system": "P12-Ichikawa", "AUC of viability dose-response curve": 466}
{"molecule": "CC(=O)NC[C@H]1CN(c2ccc(N3CCOCC3)c(F)c2)C(=O)O1", "test system": "P12-Ichikawa", "AUC of viability dose-response curve": 429}
{"molecule": "Nc1nc(F)nc2c1ncn2[C@@H]1O[C@H](CO)[C@@H](O)[C@H]1O", "test system": "P12-Ichikawa", "AUC of viability dose-response curve": 282}
{"molecule": "CC[C@@]1([C@@H]2O[C@@H]([C@H]3O[C@@](O)(CO)[C@H](C)C[C@@H]3C)C[C@@H]2C)CC[C@H]([C@]2(C)CC[C@]3(C[C@H](O)[C@@H](C)[C@@H]([C@@H](C)[C@@H](OC)[C@H](C)C(=O)[O-])O3)O2)O1", "test system": "P12-Ichikawa", "AUC of viability dose-response curve": 340}
{"molecule": "COC1=CC=C(C=C1)C2CC(=N/N2C3=CC=C(C=C3)[S+](N)([O-])=O)\\C4=CC=CC=C4 (stereo unspecified)", "test system": "P12-Ichikawa", "AUC of viability dose-response curve": 340}
{"molecule": "CC(=O)Nc1sc2c(c1-c1nc3ccccc3s1)CNC2", "test system": "P12-Ichikawa", "AUC of viability dose-response curve": 453}
{"molecule": "O=C1CCc2ccc(OCCCCN3CCN(c4cccc(Cl)c4Cl)CC3)cc2N1", "test system": "P12-Ichikawa", "AUC of viability dose-response curve": 449}
{"molecule": "COc1cccc2c1C(=O)c1c(O)c3c(c(O)c1C2=O)C[C@@](O)(C(C)=O)C[C@@H]3O[C@H]1C[C@H](N)[C@H](O)[C@H](C)O1", "test system": "P12-Ichikawa", "AUC of viability dose-response curve": 263}
{"molecule": "Nc1nc(OCc2ccccc2)c2nc[nH]c2n1", "test system": "P12-Ichikawa", "AUC of viability dose-response curve": 471}
{"molecule": "CN[S+](=O)([O-])CCc1ccc2[nH]cc(C3CCN(C)CC3)c2c1", "test system": "P12-Ichikawa", "AUC of viability dose-response curve": 466}
{"molecule": "CC(NCc1ccc2c(c1)[nH]/c(=N\\C(=O)c1ccc(-c3cn[nH]c3)s1)n2CC(C)(C)O)C(C)(C)C (stereo unspecified)", "test system": "P12-Ichikawa", "AUC of viability dose-response curve": 345}
{"molecule": "COc1cc(-c2nn(C3CCC(N4CCN(C(C)=O)CC4)CC3)c3ncnc(N)c23)ccc1NC(=O)c1cc2ccccc2n1C (stereo unspecified)", "test system": "P12-Ichikawa", "AUC of viability dose-response curve": 460}
{"molecule": "O=C(NNC(=O)c1ccc(CN[S+](=O)([O-])c2ccc(F)c(Cl)c2)cc1)c1ccccc1", "test system": "P12-Ichikawa", "AUC of viability dose-response curve": 470}
{"molecule": "C[C@@H]1C[C@H]2[C@@H]3CC\\C4=C\\C(=O)\\C=C/[C@]4(C)[C@@]3(Cl)[C@@H](O)C[C@]2(C)[C@@]1(OC(=O)C5=CC=CO5)C(=O)CCl", "test system": "P12-Ichikawa", "AUC of viability dose-response curve": 234}
{"molecule": "CCN(C)C(=O)Oc1cccc([C@H](C)N(C)C)c1", "test system": "P12-Ichikawa", "AUC of viability dose-response curve": 465}
{"molecule": "CN(C)c1ccc2cc(C(=O)N[C@@H](CCCNC(=N)CCl)C(=O)NCc3ccccc3)ccc2c1", "test system": "P12-Ichikawa", "AUC of viability dose-response curve": 449}
{"molecule": "CN1CC(=O)\\N=C1\\NC(=O)NC2=CC(=CC=C2)Cl", "test system": "P12-Ichikawa", "AUC of viability dose-response curve": 463}
{"molecule": "CCNc1cc(NC2CCC(O)CC2)nc(Nc2ccc3c(ccn3Cc3ccccc3)c2)n1 (stereo unspecified)", "test system": "P12-Ichikawa", "AUC of viability dose-response curve": 469}
{"molecule": "CO[C@H]1C[C@@H]2CC[C@@H](C)[C@@](O)(O2)C(=O)C(=O)N2CCCC[C@H]2C(=O)O[C@H]([C@H](C)C[C@@H]2CC[C@@H](OCCO)[C@H](OC)C2)CC(=O)[C@H](C)/C=C(/C)[C@@H](O)[C@@H](OC)C(=O)[C@H](C)C[C@H](C)\\C=C/C=C\\C=C/1C", "test system": "P12-Ichikawa", "AUC of viability dose-response curve": 362}
